meta.source: patent US20240247080A1

The entries below come with measured EC50, CreLuc assay, 100% hP values attached.
# system-tested: T1, human neuropeptide Y2 (NPY2) receptor (human, UniProt P49146 1-381)
# T1 sequence (looked up): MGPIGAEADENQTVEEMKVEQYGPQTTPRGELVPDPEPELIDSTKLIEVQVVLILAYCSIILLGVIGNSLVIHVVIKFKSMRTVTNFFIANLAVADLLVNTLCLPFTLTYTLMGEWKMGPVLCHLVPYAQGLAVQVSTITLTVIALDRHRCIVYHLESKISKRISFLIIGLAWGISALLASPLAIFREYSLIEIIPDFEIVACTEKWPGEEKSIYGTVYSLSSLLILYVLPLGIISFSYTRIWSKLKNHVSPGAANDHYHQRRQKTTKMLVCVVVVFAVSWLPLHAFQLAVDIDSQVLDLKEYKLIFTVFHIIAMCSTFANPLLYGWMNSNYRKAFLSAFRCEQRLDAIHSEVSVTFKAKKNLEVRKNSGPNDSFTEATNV
# method-summary: cell-based or functional assay
Starred links: 1 amine or outer side, 2 acyl side, 3 side chain; linkers in the order of their positions; H or OH if unused. Non-standard residues stand in square brackets, D forms with d. Groups on a side chain read outwards from the residue. No end group written: not given here. *: point of attachment. C20 diacid = O=C(O)CCCCCCCCCCCCCCCCCCC(=O)*; γGlu = O=C(O)[C@H](CCC(=O)[*:2])N[*:1]; εLys = N[C@@H](CCCCN[*:1])C(=O)[*:2]; Aib = CC(C)(N)C(=O)O
Quick note: give the figure in µM, leave out the unit.

Worked set:
# binder YXEGTFTSDYSIXLEKQAQXAFVEWLIKGGPSSGVSIRHYYNWLTRQRY (Aib at 2, 13, 20; K28 side chain: C20DA-gGlu-gGlu-gGlu-gGlu-gGlu-gGlu-eLys; C-terminal NH2) [Compound 27] ; its EC50, CreLuc assay, 100% hP = 0.021

# binder YXEGTFTSDYSIXLEKQAQXAFVEWLIKGGPSSPESLRHYYNWLTRQRY (Aib at 2, 13, 20; K28 side chain: C20DA-gGlu-gGlu-gGlu-gGlu-gGlu-gGlu-eLys; C-terminal NH2) [Compound 73] ; its EC50, CreLuc assay, 100% hP = 0.107

# binder Y[Aib]EGTFTSDYSI[Aib]LEKQAQ[Aib]AFVQWLIK([εLys-γGlu-γGlu-γGlu-γGlu-γGlu-C20 diacid])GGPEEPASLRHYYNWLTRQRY-NH2 (also: TFA salt) [Compound 67] ; its EC50, CreLuc assay, 100% hP = 0.0789

Next item in the queue.
# binder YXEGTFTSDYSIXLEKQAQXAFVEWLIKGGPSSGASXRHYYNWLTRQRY (Aib at 2, 13, 20, 37; DTyr 49; K28 side chain: C20DA-gGlu-gGlu-gGlu-gGlu-gGlu-gGlu-eLys; C-terminal NH2) [Compound 74] ; its EC50, CreLuc assay, 100% hP = 0.11
